target: recombinant PRL-3 (Homo sapiens); construct: 6xHis (N, cleaved yes); made in house; host or cells: E. coli One Shot BL21 Star; assay: In vitro phosphatase assay (DiFMUP hydrolysis), PRL-3; assay type: biochemical; conditions: FDA-approved drug screen; compared to DMSO; further: test concentration or dose not given here
Sequence (O75365 whole entry): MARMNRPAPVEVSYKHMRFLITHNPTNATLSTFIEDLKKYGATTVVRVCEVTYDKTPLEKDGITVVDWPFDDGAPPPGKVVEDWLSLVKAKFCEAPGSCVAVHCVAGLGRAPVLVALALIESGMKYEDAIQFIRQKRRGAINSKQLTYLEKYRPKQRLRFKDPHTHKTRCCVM
Counter-ions that a name gives are not always drawn.
This section presents compounds with their documented % Phosphatase Activity (compared to DMSO) PRL-3 values.
Give just the number in %; leave the unit off.

| Compound | Result |
| --- | --- |
| COc1cc(Nc2ncc3c(n2)-c2ccc(Cl)cc2C(c2c(F)cccc2OC)=NC3)ccc1C(=O)O | 81 |
| C#Cc1cccc(Nc2ncnc3cc(OC)c(OCCCCCCC(=O)NO)cc23)c1 | 79 |
| Cc1ccc2c(Cl)cc(Cl)c(O)c2n1 | 71 |

Q: Field request: % Phosphatase Activity (compared to DMSO) PRL-3 | item: CCc1cc2c(cc1CC)CC(NC[C@H](O)c1ccc(O)c3[nH]c(=O)ccc13)C2 [Indacaterol Maleate]
Ans: 95

Q: Item: Cl.Fc1ccc([C@@H]2CCNC[C@H]2COc2ccc3c(c2)OCO3)cc1 [Paroxetine HCl]
Ans: 95

Q: Item: `CN(C)C(=O)c1cc2cnc(Nc3ccc(N4CCNCC4)cn3)nc2n1C1CCCC1`
Ans: 98

Q: Item: `CNC(=O)[C@@H](NC(=O)[C@H](CC(C)C)[C@H](O)C(=O)NO)C(C)(C)C`
Ans: 91

Q: Item: O=S(=O)(O)c1cc(O)ccc1O [Ethamsylate]
Ans: 71

Q: Item: `CNC(=O)c1cc(Oc2ccc(NC(=O)Nc3ccc(Cl)c(C(F)(F)F)c3)c(F)c2)ccn1`
Ans: 79

Q: Item: `COc1ccc(-n2nc(C(N)=O)c3c2C(=O)N(c2ccc(N4CCCCC4=O)cc2)CC3)cc1`
Ans: 80

Q: Item: CN(C)CCC(c1ccc(Br)cc1)c1ccccn1.O=C(O)/C=C\C(=O)O (stereo not drawn) [Brompheniramine hydrogen maleate]
Ans: 78
